- Test system: Magnaporthe vegetative mycelia, abc3Δ mutant
- Type: cell-based
Reported Minimum Inhibitory Concentration (MIC), abc3Δ values follow for various molecules

[
  {
    "MOLECULE": "C[C@H]1CCC/C=C/[C@@H]2C[C@H](O)C[C@H]2[C@H](O)/C=C/C(=O)O1 [Brefeldin A]",
    "EXPERIMENTAL SYSTEM": "Magnaporthe vegetative mycelia, abc3Δ mutant",
    "VALUE REPORTED": "40 µg/mL"
  }
]

INPUT: // map CCCCNC(=O)n1c(NC(=O)OC)nc2ccccc21 [Benomyl] to recorded Minimum Inhibitory Concentration (MIC), abc3Δ (system: Magnaporthe vegetative mycelia, abc3Δ mutant)
OUTPUT: 2 µg/mL

Origin of measurements: patent US8193160B2
